Molecular target: DNA adenine-N6 methyltransferase M.TaqI (Thermus aquaticus) (UniProt P14385)
Sequence (P14385 whole entry): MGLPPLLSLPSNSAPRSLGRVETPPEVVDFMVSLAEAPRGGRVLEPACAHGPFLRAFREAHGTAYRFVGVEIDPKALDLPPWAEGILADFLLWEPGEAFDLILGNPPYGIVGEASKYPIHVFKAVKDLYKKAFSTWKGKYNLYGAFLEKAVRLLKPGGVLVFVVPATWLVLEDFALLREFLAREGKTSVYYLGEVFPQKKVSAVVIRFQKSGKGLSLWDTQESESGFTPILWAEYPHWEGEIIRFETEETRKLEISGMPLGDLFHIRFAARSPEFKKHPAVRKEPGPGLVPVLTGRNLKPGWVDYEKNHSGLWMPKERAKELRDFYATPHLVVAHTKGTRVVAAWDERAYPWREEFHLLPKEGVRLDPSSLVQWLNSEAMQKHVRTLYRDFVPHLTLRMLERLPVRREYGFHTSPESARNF
Assay: competition, 2-aminopurine fluorescence titration
Conditions: strand 1 position 9 (N) = 6-thio-2'-deoxyinosine (I6S); strand 2 U6 = 4-thio-2'-deoxyuridine (U4S), A9 = N6-methyl-dA; all other residues DNA; 20 mM TrisOAc pH 7.9, 10 mM Mg(OAc)2, 50 mM KOAc, 0.01% reduced Triton X-100, with 1 mM DTT (unlocked) or no reducing agent (locked); 400 nM duplex vs 200 nM …
measured-quantity: Kd (nM)
Numbers only, in nM.

-- ask What measured Kd goes with GCCGCTCGNTGCCG / CGGCAUCGAGCGGC [1I6S·2U4S (unlocked A/T analog)] ?
-- reply 1

###

Target: DNA adenine-N6 methyltransferase M.TaqI (Thermus aquaticus) (UniProt P14385)
Assay: competition, 2-aminopurine fluorescence titration
Conditions: strand 1 position 9 (N) = 6-thio-2'-deoxyinosine, S-ethylene-S interstrand cross-linked to 4-thio-2'-deoxyuridine at strand 2 U6; strand 2 A9 = N6-methyl-dA; 20 mM TrisOAc pH 7.9, 10 mM Mg(OAc)2, 50 mM KOAc, 0.01% reduced Triton X-100, with 1 mM DTT (unlocked) or no reducing agent (locked); 400 nM duplex vs 200 nM …
measured-quantity: Kd (nM)
Give bare numbers, in nM.

-- ask Look up Kd for this sequence: GCCGCTCGNTGCCG / CGGCAUCGAGCGGC [1I6S-Et-S4U2 (locked, cross-linked A/T analog)]
-- reply 6

Data provenance: paper PMC4187101
